# credit: patent US20180237497A1

- System Name: T1, human IGF2^1-67 (mature insulin-like growth factor 2) (human, UniProt P01344 25-91, biotinylated (site not stated) where immobilised on the chip (Tables 1-4))
- T1 construct: mature; also called mature IGF2; biotinylated IGF2
- T1 sequence (P01344 25-91): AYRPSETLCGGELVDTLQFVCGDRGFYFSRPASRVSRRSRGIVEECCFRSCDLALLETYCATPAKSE
- Method Description: SPR, biotin-IGF2 on chip, pH 7.4
Reported koff is given for each of the following binders.

- Binder: "domain 11^AB5 HI^23D (receptor, See m5; Only koff printed; other cells np (no protein)) MKSNEHDDCQVTNPSTGHLFDLSSLSGRAGFTAAYAKGWGVYMSICGENENCPPGVGACFGQTRISVGKANKRLRYVDQVLQLVYKDGSPCPSKSGLSYKSVISFVCRPEAGPTNRPMLISLHFQSCTLFFSWHTPLACEQATECSV"
  koff, s⁻¹: 0.012
- Binder: "domain 11^AB5 Q1569R P1597K S1602H G1603K (receptor, See m5; Only koff printed; other cells np (no protein)) MKSNEHDDCQVTNPSTGHLFDLSSLSGRAGFTAAYAKGWGVYMSICGENENCPPGVGACFGRTRISVGKANKRLRYVDQVLQLVYKDGSKCPSKHKLSYKSVISFVCRPEAGPTNRPMLISLDKQTCTLFFSWHTPLACEQATECSV"
  koff, s⁻¹: 0.008
- Binder: "domain 11^AB5 Q1569R P1597H S1602H G1603K (receptor, See m5; Only koff printed; other cells np (no protein)) MKSNEHDDCQVTNPSTGHLFDLSSLSGRAGFTAAYAKGWGVYMSICGENENCPPGVGACFGRTRISVGKANKRLRYVDQVLQLVYKDGSHCPSKHKLSYKSVISFVCRPEAGPTNRPMLISLDKQTCTLFFSWHTPLACEQATECSV"
  koff, s⁻¹: 0.005
- Binder: "domain 11^AB3 P1597H HI^23D (receptor, See m5; Only koff printed) MKSNEHDDCQVTNPSTGHLFDLSSLSGRAGFTAAYSKSGVVYMSICGENENCPPGVGACFGQTRISVGKANKRLRYVDQVLQLVYKDGSHCPSKSGLSYKSVISFVCRPEAGPTNRPMLISLHFQSCTLFFSWHTPLACEQATECSV"
  koff, s⁻¹: 0.012
